# credit: patent US20220354835A1

- experimental.target: heparin-induced aggregated tau (aTau), full-length 2N4R human Tau (Homo sapiens, UniProt P10636)
- Construct: transformed with a full-length 2N4R tau expression plasmid; made in house; host or cells: E. coli BL21
- Sequence (P10636 1-441 isoform P10636-8): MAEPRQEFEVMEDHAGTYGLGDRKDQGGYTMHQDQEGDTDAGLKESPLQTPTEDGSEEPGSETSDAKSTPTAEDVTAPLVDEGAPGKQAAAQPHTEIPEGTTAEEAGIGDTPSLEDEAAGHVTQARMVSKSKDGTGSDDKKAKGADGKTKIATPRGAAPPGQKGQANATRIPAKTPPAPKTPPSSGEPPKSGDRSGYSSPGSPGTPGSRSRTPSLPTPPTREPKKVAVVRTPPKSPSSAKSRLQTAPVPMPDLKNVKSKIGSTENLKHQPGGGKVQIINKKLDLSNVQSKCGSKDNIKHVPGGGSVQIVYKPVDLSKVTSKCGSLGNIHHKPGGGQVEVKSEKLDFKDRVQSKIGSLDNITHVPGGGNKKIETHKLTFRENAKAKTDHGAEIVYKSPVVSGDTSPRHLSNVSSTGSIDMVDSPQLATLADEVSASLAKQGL
- assay.notes: PBB5 competition assay
- Assay type: binding
- condition.set: 0.12 μM aTau, 0.1 μM PBB5, compound up to 10 μM; read-out: Competition Assay with PBB5: Bmax (%)
The entries below come with measured Emax values attached.
The figure you give is taken to be in %; do not add the unit.

Example results:
* CN(C)c1ccc(-c2ccc(-c3cn4cc(OCCOCCN5C(=O)CCC(N6C(=O)c7ccc(O)cc7C6=O)C5=O)ccc4n3)cc2)c(F)n1 (stereo not drawn) [Compound 160570] | 100
* CN(C)c1ccc(-c2ccc(-c3cn4cc(OCCOCCOCCOCCOCCOCCOc5ccc6c(c5)C(=O)N(C5CCC(=O)NC5=O)C6=O)ccc4n3)cc2)c(F)n1 (stereo not drawn) [Compound 160744] | 113
* CN(C)c1ccc(-c2ccc(-c3nc4ccc(NCCOCCOCCOCCOCCOCCOc5ccc6c(c5)C(=O)N(C5CCC(=O)NC5=O)C6=O)cc4s3)cc2)cn1 (stereo not drawn) [Compound 159985] | 71
* CN(C)c1ccc2nc(-c3ccc(-c4ccc(NCCOCCN5C(=O)CCC(N6C(=O)c7ccc(O)cc7C6=O)C5=O)nc4)cc3)sc2c1 (stereo not drawn) [Compound 160703] | 100
* CN(C)c1ccc(-c2ccc(-c3nc4ccc(NCCOCCOCCOCCOCCOCCOc5ccc6c(c5)CN(C5CCC(=O)NC5=O)C6=O)cc4s3)cc2)cn1 (stereo not drawn) [Compound 160273] | 59

With those in mind, consider the next compound.
Problem: Give Emax for CN(C)c1ccc(-c2ccc(-c3nc4ccc(NCCOCCOc5ccc6c(c5)CN(C5CCC(=O)NC5=O)C6=O)cc4s3)cc2)cn1 (stereo not drawn) [Compound 160313]
Solution: 64
